From: paper PMC9674596

- target_of_assay: wild-type ELIC (Dickeya chrysanthemi, UniProt P0C7B7, INS163G)
- Construct: expressed in transfected cells; host or cells: Xenopus laevis oocytes injected with cRNA from ELIC-pTLN
- assay_name: Two-electrode voltage clamp, whole-cell currents of wild-type ELIC expressed in Xenopus laevis oocytes
- Format: cell-based, Erwinia chrysanthemi
- condition_label: WT, 25 mM amine
measured_attribute: Activation by amine (whole-cell response)

>  <compound>
C[N+](C)(C)C

>  <assay_value>
fail to activate

$$$$
>  <compound>
CC(=O)OCC[N+](C)(C)C

>  <assay_value>
fail to activate

$$$$
>  <compound>
CC(=O)OCCN(C)C [DMAEA, 2-dimethylaminoethyl acetate]

>  <assay_value>
activate

$$$$
>  <compound>
CN(C)C

>  <assay_value>
activate

$$$$

====

- target_of_assay: ELIC A75D/F133W (Dickeya chrysanthemi, UniProt P0C7B7, A75D/F133W/INS163G)
- Construct: expressed in transfected cells; host or cells: Xenopus laevis oocytes injected with cRNA; DNA construct synthesised by Twist Bioscience
- assay_name: Two-electrode voltage clamp, A75D/F133W double mutant ELIC expressed in Xenopus laevis oocytes
- Assay type: cell-based, Erwinia chrysanthemi
- condition_label: 25 mM amine, cysteamine at its EC50
measured_attribute: Activation by amine (whole-cell response)

>  <compound>
CC(=O)OCC[N+](C)(C)C [ACh, acetylcholine]

>  <assay_value>
fail to activate

$$$$
>  <compound>
CC(=O)OCCN(C)C [DMAEA, 2-dimethylaminoethyl acetate]

>  <assay_value>
activate

$$$$
>  <compound>
C[N+](C)(C)C [tetramethylammonium, Tetramethylammonium]

>  <assay_value>
fail to activate

$$$$
>  <compound>
CN(C)C [trimethylamine, Trimethylamine]

>  <assay_value>
activate

$$$$

====

- target_of_assay: ELIC L240A (L9′A) (Dickeya chrysanthemi, UniProt P0C7B7, L239A)
- assay_name: Two-electrode voltage clamp, L240A (L9′A) mutant ELIC expressed in Xenopus laevis oocytes
- condition_label: L240A (L9′A), cysteamine as agonist; read-out: Activation EC50
- Description: Stage V-VI Xenopus laevis oocytes were isolated[72] and deflocculated enzymatically in ND96 buffer without Ca^2+ (96 mM NaCl, 2 mM KCl, 1 mM MgCl2, 2 mM pyruvate, 5 mM HEPES, pH 7.4), but supplemented with 1 mg/mL collagenase B and 1 mg/mL trypsin inhibitor, for 2 h at room temperature under constant stirring. […]
measured_attribute: pEC50
Answers are plain numbers, as −log10 of the molar value.

For the compound NCCS , what pEC50 is on record?
3.82

====

- target_of_assay: ELIC I79Y (Dickeya chrysanthemi, UniProt P0C7B7, I79Y/INS163G)
- assay_name: Two-electrode voltage clamp, I79Y mutant ELIC expressed in Xenopus laevis oocytes
- condition_label: estimate, cysteamine application for 30 s, 1.5 mM to 100 mM, read-out: Activation EC50
measured_attribute: EC50
Respond with the figure and its unit, in that order.

If you can, please state the reported EC50 value of NCCS [cysteamine] .
14 mM

====

- target_of_assay: ELIC A75D/F133W (Dickeya chrysanthemi, UniProt P0C7B7, A75D/F133W/INS163G)
- Construct: DNA construct synthesised by Twist Bioscience
- assay_name: Two-electrode voltage clamp, A75D/F133W double mutant ELIC expressed in Xenopus laevis oocytes
- condition_label: cysteamine as agonist, read-out: Activation EC50
measured_attribute: EC50 (mM)
Numbers only, in mM.

# input compound: NCCS [cysteamine] ; wanted: its EC50
6.9
